Where do these numbers come from? They come from paper PMC3154423.

# TESTED_ON: Jun bZIP R270A;Fos bZIP R143A (human;human, UniProt P05412;P01100 252-315;137-200, R270A|R143A)
# Sequence (P05412 252-315 R270A, chain 1 of 2): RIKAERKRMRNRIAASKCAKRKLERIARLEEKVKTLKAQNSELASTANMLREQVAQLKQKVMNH
# Sequence (P01100 137-200 R143A, chain 2 of 2): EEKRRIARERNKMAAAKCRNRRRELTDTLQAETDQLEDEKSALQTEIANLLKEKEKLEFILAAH
# ASSAY_INFO: ITC
MEASURED_ENDPOINT: pKd
To interpret pKd, take it as minus log10 of a concentration measured in moles per litre.

Prompt: Could you tell me which pKd is on file for TRE duplex 15-mer (dsDNA) DNA 1: CGCGTGACTCACCCC DNA 2: GGGGTGAGTCACGCG ?
Completion: 5.80
